- System: K4 kissing-loop RNA reporter;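 further: bound reporter read as fluorescence of individual clusters on recovered sequencing chips by microscopy, with normalized cluster intensities fitted with a binding model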
- assayText: apparent KD of K4 kissing-loop reporter; higher = weaker reporter binding
- assayContext: Eterna round: R107; input ligand: FMN 200 uM
Values of apparent KD of K4 kissing-loop reporter greater than or equal to 400 nM map to fulfilled; values below map to not fulfilled.

{"constructSequence": "UUAGUUGAAAGUGAUACCAGACGAGUGAAGGGAAGAAAUUAAGUUGGAGUGAUGUUCCGCGUCCCUUGGCAGCACUUUGUAAUUU [Exclusion Theophylline B GF 22]", "classAssignment": "not fulfilled"}
{"constructSequence": "UUGUUUUACUGAAGGAGCGGCAAUUGAUACGUAGAUAUAGUGAUGUUAUAUAAGAUAGAGAGCCAGGUAGGUCGCAGAUUUUUUU [ExArgB.V]", "classAssignment": "not fulfilled"}
{"constructSequence": "UCGAACGAUGGAAGGAGCGCUCGUCAGUCCUGCGAGUGAUGUUCGUGGGUAAAUAGUCGCGAGCAGGUAGGUCGCCAUCUUGGGC [Reriat]", "classAssignment": "not fulfilled"}
{"constructSequence": "ACCUACGAUCACAAUAGUGAUUGUAGGAACUAGGAUAUGCUGAAAAGCAGAAGGAGUGAUGUUCCAACUCAUGAAUAACAUGAGA [FmnAX 2 #OpenEnded #K4Late]", "classAssignment": "fulfilled"}
{"constructSequence": "UGGAGUGCCUGGUCGUCACUAUGCCAACCACGAGGACCGGUACGGCCGCCACUCGUGAGGGAUAUUCAGAAAGUGAUGUUUUUUG [theeternabot_exclusion_KL_Trp_A_1]", "classAssignment": "fulfilled"}
{"constructSequence": "AGUAAUGAGUGAUGUUCAAUUAGUAAGGAUACCAGUAAUUCAAAAUGCCCUUGGCAGCUUAACGCUACCAAUAGAUUAAUAAUGG [First try - Theophylline A]", "classAssignment": "not fulfilled"}
{"constructSequence": "GUCAUCAGAUCGCAAGAUCUGAUAGCCGAUACCAGCGCGAAGGUGCGCCCUUGGCAGCGGCACCGAGUGAUGUUCGGUCAGACGG [#2 Same State - Theophylline A Attempt #4 (HarryS)]", "classAssignment": "fulfilled"}
{"constructSequence": "UCGAAAUGCGUCUCCUAGUUACUCCGGGAAGGAGCGUGGAUAACCGCAGGUAGGUCGCCCGGAAGCCGGACCAGUGAUGUUGGUC [Exclusion Arginine A Gf 29]", "classAssignment": "not fulfilled"}

In the following, a different sequence is considered.
Input line: Answer whether apparent KD of K4 kissing-loop reporter of `GGAGGCUAUGCAGGAUAUAGUCGGUUGAGUGAUGUUUAACGACUAAACCUUCUAAGUCACAGCCCGCUAGAAGGGCAUAGCCUCC` is greater than or equal to 400 nM.
Output line: fulfilled

---

- Test system: MS2 coat protein
- assayText: apparent KD of MS2 coat protein; designed switch direction (-1 OFF switch, 1 ON switch): 1; higher = weaker reporter binding
- assayContext: input ligand: none
propertyName: apparent KD of MS2 coat protein (µM)
Answers are plain numbers, in µM.

The cases that follow already have their apparent KD of MS2 coat protein on record.
{"constructSequence": "UUGUUUCGUCAUUAACAUGAGGAUCACCCAUGUAAAGGAGCAGAGGAUAUGCAUGUUUGAUUGUAGCAGAAGGCUGAUUGUUGU [JR_SSNG3_Sub034] (Eterna round: R96, puzzle: Same State NG 3)", "measureUnit": "µM", "apparent KD of MS2 coat protein": 0.0319}
{"constructSequence": "UUAAUGAUGAUAGGAUAUACAUGAGGAAUUCUCGUAGAAGGAUCAUGACAUGAGGAUCACCCAUGUAUCGCUCCGUAGAGCGUA [JL SSNG1 1.14] (Eterna round: R96, puzzle: Same State NG 1)", "measureUnit": "µM", "apparent KD of MS2 coat protein": 0.676}
{"constructSequence": "AAAUAAAACACAGGAUAUGCAACCAAAACGGCGGCAGAAGGGUGAGACAUGAGGAUCACCCAUGUACACGUCCCACGGACGUGC [Arorraed] (Eterna round: R96, puzzle: Same State NG 1)", "measureUnit": "µM", "apparent KD of MS2 coat protein": 0.0884}
{"constructSequence": "UGUUGUAUUACAGGAUAUCUAUGAUUGUUAUUUAGAGAAGGGUAUUCACAUGAGGAUCACCCAUGUAUAUACGAGGAAGUUGUG [JMF's solution 60] (Eterna round: R96, puzzle: Same State NG 1)", "measureUnit": "µM", "apparent KD of MS2 coat protein": 0.0506}
{"constructSequence": "AGGGAGGAUGCAGGAUAUACAAGACAUGAGGAUCACCCAUGUACCUUGUGGAGAAGAAAGGAGAGGUAGAAGGGUAGUGAGGAA [Default title] (Eterna round: R96, puzzle: Same State NG 2)", "measureUnit": "µM", "apparent KD of MS2 coat protein": 0.0164}

For every item below, please supply its apparent KD of MS2 coat protein.
1. AAGCAUGAAAACAUGCAUAAAAAGUUUGUACAUGAGGAUCACCCAUGUAUGUGCAAGCUUUUUGCUCGUCUUGAAAA [JL SD Zipper 5] (Eterna round: R96, puzzle: Sensor for hsa-mir-208a)
2. GUUACAUGAGGAUCACCCAUGUAUGUGUGGGAGUAAGUGUCUUAGGAUAUCUAUGAUAUAAUUUAAGAGAAGGAAGAUUGUUGU [JMF's solution 75] (Eterna round: R96, puzzle: Same State NG 3)
3. AUAAAACAUGAGGAUCACCCAUGUAAAAAUAUGGGAGGAUAUGCGAAAUAAAAUAAAUAAGCAGAAGGCCUAAAAA [SS! MT 19] (Eterna round: R96, puzzle: Same State 1)

Output line:
0.171
0.136
0.0627

Input line: May I ask what apparent KD of MS2 coat protein has been recorded for GUGGCGGGUUGAGGAUAUUGGUUGCCUAUGUUUAACAUGAGGAUCACCCAUGUGGGUUGCGGUUUCGAGAAGGUAGGUUGCUGG [salish99_SSNG2_r04_046] (Eterna round: R96, puzzle: Same State NG 2) ?
Output line: 0.188
